Listed here are compounds together with their documented inhibition.
Target: N-glycosylase/DNA lyase (Homo sapiens) (UniProt O15527);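 also: OGG1 cleavage of a quenched duplex DNA oligonucleotide, coupled to APE1 for strand incision, read as fluorescence at 594 nm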
Sequence (O15527 whole entry): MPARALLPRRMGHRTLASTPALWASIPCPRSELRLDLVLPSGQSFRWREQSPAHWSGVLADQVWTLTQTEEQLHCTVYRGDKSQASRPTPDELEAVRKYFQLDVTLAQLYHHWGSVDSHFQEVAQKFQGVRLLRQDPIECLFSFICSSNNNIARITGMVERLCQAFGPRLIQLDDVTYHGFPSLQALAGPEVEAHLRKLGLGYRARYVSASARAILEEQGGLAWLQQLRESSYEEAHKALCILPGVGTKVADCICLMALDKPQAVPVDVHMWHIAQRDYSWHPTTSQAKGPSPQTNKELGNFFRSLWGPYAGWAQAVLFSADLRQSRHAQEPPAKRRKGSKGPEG
Conditions: Compound Concentration 1.0 uM, Hit No
Description: Inhibition of OGG1 by quantifying inhibition of OGG1-mediated cleavage and dissociation of quenched duplex DNA oligonucleotides, measured as fluorescence at 594 nm. To generate a functional strand incision and increase turn-over this assay is coupled to APE1.

Chemical string: CCCOc1ccc([C@@H]2[C@@H](C(=O)O)[C@H](c3ccc4c(c3)OCO4)CN2CC(=O)Nc2c(CC)cccc2CC)cc1
inhibition: 12%

Chemical string: Cc1nc(-c2cn3c(n2)-c2ccc(-c4cnn(C(C)(C)C(N)=O)c4)cc2OCC3)n(C(C)C)n1
inhibition: 1.09%

Chemical string: N[C@@H]1CCCN(c2c(/C=C3\SC(=O)NC3=O)cccc2-c2ccccc2)C1
inhibition: 16.9%

Chemical string: NC(=O)c1ccc2nc(-c3ccc(C4(N)CCC4)cc3)c(-c3ccccc3)n2n1
inhibition: 4.13%

Chemical string: CCC(=O)N1CCN(c2ccc(-n3c(=O)ccc4cnc5ccc(-c6cnc7ccccc7c6)cc5c43)cc2C(F)(F)F)CC1
inhibition: 10.6%

Chemical string: COC[C@H](NC(=O)c1ccn(S(C)(=O)=O)c1)C(=O)Nc1nc(-c2cccc(-c3ccn(C)n3)c2)cs1
inhibition: -7.59%

Chemical string: CC(C)CC(=O)N1CCc2nc(-c3ccc(Br)cc3)nc(N(C)Cc3ccccc3)c2C1
inhibition: 5%

Chemical string: Cc1nc(Cc2cccc(C(F)(F)F)c2)sc1-c1ccc(C(N)=O)nc1
inhibition: 0.0328%

Chemical string: CN1C(=O)[C@@H](N2CCc3cn(Cc4ccccc4)nc3C2=O)COc2ccccc21
inhibition: 5.71%

====

Measured inhibition accompanies every entry in the list below.
Biological target: Adenine DNA glycosylase (Homo sapiens) (UniProt Q9UIF7);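 also: human MUTYH activity read as 594 nm fluorescence from cleavage and release of a quenched DNA duplex, coupled with APE1 for strand incision, lower signal meaning inhibition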
Sequence (whole entry): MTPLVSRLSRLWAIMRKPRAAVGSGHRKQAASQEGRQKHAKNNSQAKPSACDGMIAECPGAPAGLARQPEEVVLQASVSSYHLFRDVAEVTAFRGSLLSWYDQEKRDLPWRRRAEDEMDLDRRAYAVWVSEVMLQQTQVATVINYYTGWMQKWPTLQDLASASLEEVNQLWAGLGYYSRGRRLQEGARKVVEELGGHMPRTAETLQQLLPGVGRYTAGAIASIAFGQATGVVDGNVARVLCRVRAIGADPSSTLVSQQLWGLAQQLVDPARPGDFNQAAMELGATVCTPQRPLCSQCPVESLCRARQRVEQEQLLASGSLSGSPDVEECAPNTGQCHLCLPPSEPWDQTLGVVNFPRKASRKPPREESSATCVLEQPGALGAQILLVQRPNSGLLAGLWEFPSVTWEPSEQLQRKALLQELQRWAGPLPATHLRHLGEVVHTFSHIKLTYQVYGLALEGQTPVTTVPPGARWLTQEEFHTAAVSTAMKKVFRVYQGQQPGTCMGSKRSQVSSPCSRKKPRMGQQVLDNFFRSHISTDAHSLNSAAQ
Settings: Compound Concentration 10.0 uM, Hit No
Description: Inhibition of MUTYH by quantifying inhibition of MUTYH-mediated cleavage and dissociation of quenched duplex DNA oligonucleotides, measured as fluorescence at 594 nm. To generate a functional strand incision and increase turn-over this assay is coupled to APE1.
Measured quantity: inhibition (%)

Compound: CCOC(=O)C1=C(C)NC(C)=C(C(=O)OC)C1c1cccc([N+](=O)[O-])c1 (stereo not given)
Subject of test: Adenine DNA glycosylase (Homo sapiens) (UniProt Q9UIF7)
Val: -7.47
//
Compound: Cn1cncc1[C@](O)(COc1ccc(C#N)cc1-c1ccc(OC(F)(F)F)cc1)c1ccc(C#N)cc1
Subject of test: Adenine DNA glycosylase (Homo sapiens) (UniProt Q9UIF7)
Val: -9.34
//
Compound: Nc1ncnc2c1ncn2[C@@H]1O[C@H](COP(=O)(O)OP(=O)(O)O)[C@@H](O)[C@H]1O
Subject of test: Adenine DNA glycosylase (Homo sapiens) (UniProt Q9UIF7)
Val: 18.3
//
Compound: Cc1cccc(S(=O)(=O)N(C)[C@H](C)CCN2CCC(C)CC2)c1
Subject of test: Adenine DNA glycosylase (Homo sapiens) (UniProt Q9UIF7)
Val: 9.55
//
Compound: COc1cc2c(CCNC(C)=O)c[nH]c2cc1Cl
Subject of test: Adenine DNA glycosylase (Homo sapiens) (UniProt Q9UIF7)
Val: -5.23
//
Compound: CC1(C)CN2C(CS/C(=N\C3CCCCC3)NC3CCCCC3)=CSC2=N1
Subject of test: Adenine DNA glycosylase (Homo sapiens) (UniProt Q9UIF7)
Val: 4.05
//
Compound: Clc1cccc(Cl)c1NC1=NCCN1
Subject of test: Adenine DNA glycosylase (Homo sapiens) (UniProt Q9UIF7)
Val: 14.7
//
Compound: Cc1ccc(C(C)(O)c2nc3ccccc3s2)c(C)c1 (stereo not given)
Subject of test: Adenine DNA glycosylase (Homo sapiens) (UniProt Q9UIF7)
Val: 0.661
//
Compound: CN(Cc1cccc(F)c1CNc1cc(F)c(S(=O)(=O)Nc2cscn2)c(F)c1)C(C)(C)C
Subject of test: Adenine DNA glycosylase (Homo sapiens) (UniProt Q9UIF7)
Val: 40.5
//
Compound: FC(F)(F)Oc1ccc(-c2ccc3nnc(C(F)(F)F)n3c2)cc1
Subject of test: Adenine DNA glycosylase (Homo sapiens) (UniProt Q9UIF7)
Val: -0.755
//
Compound: CCCNC(=O)c1nnc2c(-c3c(F)cccc3OC)cccc2c1N
Subject of test: Adenine DNA glycosylase (Homo sapiens) (UniProt Q9UIF7)
Val: 24.9
//
Compound: CN1CCN2c3ccccc3Cc3ccccc3C2C1 (stereo not given)
Subject of test: Adenine DNA glycosylase (Homo sapiens) (UniProt Q9UIF7)
Val: 1.87
//
Compound: CCc1cc2c(cc1CC)CC(NC[C@H](O)c1ccc(O)c3[nH]c(=O)ccc13)C2
Subject of test: Adenine DNA glycosylase (Homo sapiens) (UniProt Q9UIF7)
Val: 21.3
//
Compound: N[C@@]1(C(=O)O)CO[C@H]2[C@H](C(=O)O)[C@H]21
Subject of test: Adenine DNA glycosylase (Homo sapiens) (UniProt Q9UIF7)
Val: 10.7
//
Compound: Cc1ccc2c(c1CCC(=O)O)CC[C@@H](NS(=O)(=O)c1ccc(Cl)cc1)C2
Subject of test: Adenine DNA glycosylase (Homo sapiens) (UniProt Q9UIF7)
Val: 33.4
//
Compound: O=C(c1cc2c(cc1F)OC(c1ccc(F)cc1)(c1ccc(Cl)cc1Cl)O2)N1CCOCC1 (stereo not given)
Subject of test: Adenine DNA glycosylase (Homo sapiens) (UniProt Q9UIF7)
Val: 25.5
//
Compound: COC[C@@H](c1ccc(C(F)(F)F)cc1)N1CCN(C2(C)CCN(C(=O)c3c(C)ncnc3C)CC2)C[C@@H]1C
Subject of test: Adenine DNA glycosylase (Homo sapiens) (UniProt Q9UIF7)
Val: 7.5
//
Compound: N#Cc1cccc(-c2nc(-c3cccnc3)no2)c1
Subject of test: Adenine DNA glycosylase (Homo sapiens) (UniProt Q9UIF7)
Val: -6.2
//
Compound: CCCCC1=NC2(CCCC2)C(=O)N1Cc1ccc(-c2ccccc2-c2nnn[nH]2)cc1
Subject of test: Adenine DNA glycosylase (Homo sapiens) (UniProt Q9UIF7)
Val: 12.9
//
Compound: CCc1nc2c(o1)CC(c1ccc(C)cc1C)CC2=O (stereo not given)
Subject of test: Adenine DNA glycosylase (Homo sapiens) (UniProt Q9UIF7)
Val: -1.84
//
Compound: Cn1cc(-n2cnc3c(NCc4nc5cc(Cl)c(Cl)cc5[nH]4)nc(N4CCOCC4)nc32)cn1
Subject of test: Adenine DNA glycosylase (Homo sapiens) (UniProt Q9UIF7)
Val: 9.84
//
Compound: C=C1/C(=C\C=C2/CCC[C@]3(C)[C@@H]([C@H](C)CCCC(C)(C)O)CC[C@@H]23)C[C@@H](O)C[C@@H]1O
Subject of test: Adenine DNA glycosylase (Homo sapiens) (UniProt Q9UIF7)
Val: -4.04
//
Compound: O=C(O)Cn1c(C(=O)Nc2nc(-c3ccccc3Cl)cs2)cc2ccccc21
Subject of test: Adenine DNA glycosylase (Homo sapiens) (UniProt Q9UIF7)
Val: 40.1
//
Compound: CCN(Cc1ccc(Cl)cc1)c1ncc(C(=O)NCCCN2CCCC2=O)c(NC2CCCC2)n1
Subject of test: Adenine DNA glycosylase (Homo sapiens) (UniProt Q9UIF7)
Val: 3.34
//
Compound: O=C(O)c1ccc2c(c1)nc(Nc1cccc(Cl)c1)c1ccncc12
Subject of test: Adenine DNA glycosylase (Homo sapiens) (UniProt Q9UIF7)
Val: 11.4
//
Compound: CCCCN(CCCC)C(=O)CN1C[C@@H](c2ccc3c(c2)OCO3)[C@H](C(=O)O)[C@H]1c1ccc(OC)cc1
Subject of test: Adenine DNA glycosylase (Homo sapiens) (UniProt Q9UIF7)
Val: 19.5
//
Compound: Cc1cc(C)cc(-c2cnc3cc(Cl)c(-c4cccc(O)c4)cc3c2OCCCN)c1
Subject of test: Adenine DNA glycosylase (Homo sapiens) (UniProt Q9UIF7)
Val: -5.74
//
Compound: CCOP(=O)(OCC)C(=Cc1cc(C(C)(C)C)c(O)c(C(C)(C)C)c1)P(=O)(OCC)OCC
Subject of test: Adenine DNA glycosylase (Homo sapiens) (UniProt Q9UIF7)
Val: 14.5
//
Compound: CC(C)(C)c1ccc(C(=O)Nc2cn3cc(-n4ccnc4)ccc3n2)cc1
Subject of test: Adenine DNA glycosylase (Homo sapiens) (UniProt Q9UIF7)
Val: 6.44
//
Compound: Cn1cc(Cl)c2c(Oc3c(F)cc(Nc4cc(Cl)nc(N)n4)cc3F)ccnc21
Subject of test: Adenine DNA glycosylase (Homo sapiens) (UniProt Q9UIF7)
Val: 40.4
//
Compound: COC[C@H](O)Cn1c(=O)cnn(-c2ccc(Cl)c(C(=O)NCC3(O)CCCCCC3)c2)c1=O
Subject of test: Adenine DNA glycosylase (Homo sapiens) (UniProt Q9UIF7)
Val: 7.26
//
Compound: Cc1ccccc1C(=O)Nc1ccc(C(=O)N2CCCC(O)c3cc(Cl)ccc32)c(C)c1 (stereo not given)
Subject of test: Adenine DNA glycosylase (Homo sapiens) (UniProt Q9UIF7)
Val: 12.2
//
Compound: NC1(c2ccc(-c3nc4c(O)ccnn4c3-c3ccccc3)cc2)CCC1
Subject of test: Adenine DNA glycosylase (Homo sapiens) (UniProt Q9UIF7)
Val: 14.3
//
Compound: CN1CCN(C(=O)C(C)(C)c2ccc(C(=O)Nc3cn4cc(-c5ccncc5)ccc4n3)cc2)CC1
Subject of test: Adenine DNA glycosylase (Homo sapiens) (UniProt Q9UIF7)
Val: 32.7
//
Compound: CN([C@@H]1CCc2c(CC(=O)O)c3cc(S(C)(=O)=O)ccc3n2C1)S(=O)(=O)c1ccc(F)cc1
Subject of test: Adenine DNA glycosylase (Homo sapiens) (UniProt Q9UIF7)
Val: -3.16
//
Compound: Cc1cccc(-c2cnc3occ(-c4ccc(C(=O)O)c(C5CCCC5)c4)c3c2)c1
Subject of test: Adenine DNA glycosylase (Homo sapiens) (UniProt Q9UIF7)
Val: 15.7
//
Compound: Cc1nc[nH]c1CCN
Subject of test: Adenine DNA glycosylase (Homo sapiens) (UniProt Q9UIF7)
Val: -5.1
//
Compound: CN(C)CCn1cc(S(=O)(=O)c2cccc(F)c2)c2cccnc21
Subject of test: Adenine DNA glycosylase (Homo sapiens) (UniProt Q9UIF7)
Val: 1.09
//
Compound: CC1=C(C#N)C(c2ccc3c(c2)c(NC(=O)c2ccccc2C)nn3C)C(C#N)=C(C)N1
Subject of test: Adenine DNA glycosylase (Homo sapiens) (UniProt Q9UIF7)
Val: 15.1
//
Compound: CCC(C)(C)/N=C(\NC#N)Nc1cccnc1
Subject of test: Adenine DNA glycosylase (Homo sapiens) (UniProt Q9UIF7)
Val: 4.93
